Test system: Brugia malayi microfilariae
Assay: Anti-Brugia malayi microfilariae motility assay
Format: cell-based
Details: B. malayi microfilariae; 12.5 µM
endpoint: LF/MF % Motility Reduction at 12.5µM
Note to self: number, then unit, no commentary.

Below, 2 molecules whose answers are already recorded.
COC(=O)c1c(NC(=O)c2cc3ccccc3oc2=O)sc2c1CCN(Cc1ccccc1)C2 ... 100%
CSc1ccc2nc(N(Cc3cccnc3)C(=O)c3ccc(C(C)(C)C)cc3)sc2c1 ... 0%

Note: attention shifts to another entry.
Q: // returns reported LF/MF % Motility Reduction at 12.5µM for input O=S(=O)(c1cccnc1)N1CCN(c2ccc(-c3cccs3)nn2)CC1
A: 50%
